This document collects pKi values reported for Adenosine receptor A2a (Rattus norvegicus, UniProt P30543).
By convention, pKi is the negative base-10 log of a molar concentration.

C[C@H]1OC(n2cnc3c(NC4CCCC4)ncnc32)[C@H](O)[C@@H]1O (some centres undefined)
5.00
C[C@H](Cc1ccccc1)Nc1ncnc2c1ncn2C1O[C@H](C)[C@@H](O)[C@H]1O (some centres undefined)
5.44
OC[C@@H]1C[C@@H](O)[C@H](n2cnc3c(NC4CCCC4)ncnc32)O1
4.73

Shift focus to the following entry.
input: Fill in the recorded pKi for this molecule, with Adenosine receptor A2a (Rattus norvegicus, UniProt P30543) as test system: `OC[C@@H]1C[C@@H](O)[C@H](n2cnc3c(NC4CCCCC4)ncnc32)O1`
Sequence (P30543 whole entry): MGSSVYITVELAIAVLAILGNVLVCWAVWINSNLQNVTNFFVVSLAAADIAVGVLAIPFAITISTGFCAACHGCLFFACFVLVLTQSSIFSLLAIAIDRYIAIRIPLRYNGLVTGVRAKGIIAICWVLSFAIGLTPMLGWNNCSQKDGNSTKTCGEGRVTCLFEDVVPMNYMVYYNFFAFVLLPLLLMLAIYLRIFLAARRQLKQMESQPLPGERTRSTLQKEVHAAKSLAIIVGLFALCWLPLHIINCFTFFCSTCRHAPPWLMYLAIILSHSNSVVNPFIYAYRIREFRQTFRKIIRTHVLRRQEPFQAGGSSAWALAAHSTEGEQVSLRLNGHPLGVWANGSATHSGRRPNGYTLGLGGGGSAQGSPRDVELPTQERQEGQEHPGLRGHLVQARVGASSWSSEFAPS
output: 4.66
